Assay: NCI Yeast Anticancer Drug Screen. Data for the mec2-1 strain (AID 157)
Conditions: S. cerevisiae mec2-1 strain, at 33.0 µM
This is part of a sample that, as a whole, favours compounds with a hit. Of some 79,000 tested, about 15% had one in any assay. Active and inactive are the calls of the source. No stated cut-off is given here; in the data, active means growth inhibition above about 70%; inactive means the rest.
Answer with one of the outcomes given here: 1 for active, 0 for inactive

Worked cases, answers included:
Query block: Dear colleague, could you share the recorded outcome for `CO[C@H]1C[C@](C)(O)Cc2cc3c(c(O)c21)C(=O)c1c(O)cc2c(c1C3=O)O[C@@H]1O[C@@]2(C)[C@H](O)[C@@H](N(C)C)[C@@H]1O` when you have a moment?
Result block: 0

Query block: What classification did `CC(=O)ON1C(=O)c2cccc3cccc(c23)C1=O` end up with in this test?
Result block: 1

Continuing:
Query block: Which outcome was entered for the compound `Cc1[nH]c2ccccc2c1C(c1ccc(N)cc1)c1c(C)[nH]c2ccccc12` in this test?
Result block: 0

Query block: What did this assay record as the result for `CCCC/C=C/C(CC)(C(=O)OCC)C(=O)OCC` ?
Result block: 0

Query block: Record request — test call for `Fc1ccc(NC(=S)SCc2ccc3c(c2)OCO3)cc1F`
Result block: 1

Query block: What was the test verdict on `CCCCN(CCCC)CCSc1ccc(Cl)cc1` ?
Result block: 0

* * *

Assay: NCI Yeast Anticancer Drug Screen. Data for the rad18 strain (AID 177)
Conditions: S. cerevisiae rad18 mutant growth inhibition; at 100.0 µM
About 79,000 compounds went through this panel and 15% of them were active in at least one assay; those are over-represented in the sample as a whole. Calls of active or inactive are those of the source. No stated cut-off is given here; in the data, active means growth inhibition above about 70%; inactive means the rest.
Answer with one of the outcomes given here: Y = active, N = inactive

Record excerpt, results attached:
Query block: Fill in: this test's call for `CC(C)/C(Cl)=N\OC(=O)Nc1cccc(Cl)c1` is ___
Result block: N

Query block: In this assay, the call recorded for `S=C(S)NN1CCOCC1` was what?
Result block: Y

Query block: Please share the test call associated with `O=S(=O)(CCCl)c1ccccc1Cl` .
Result block: Y

Query block: Name the outcome recorded for `NC(=O)NN=C(CS)CS` in the assay.
Result block: Y

Query block: Hi, sorry to bother you, what did the test record for OCC(Cn1cncn1)(c1ccc(F)cc1F)n1cncn1 (stereo unspecified) ?
Result block: N

Continuing:
Query block: Test call for this molecule, please: `S=C(N/N=C/c1ccccn1)Nc1ccc(Cl)cc1`
Result block: N

Query block: Given `Cc1ccc(NC(=O)/C(Cl)=C(\Cl)C(=O)O)cc1C` , state the outcome it received in this test.
Result block: Y

* * *

Experiment: NCI Yeast Anticancer Drug Screen. Data for the rad50 strain (AID 155);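 further: 0% = growth of vehicle-only cultures of the same strain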
Conditions: S. cerevisiae rad50 strain growth inhibition; at 50.0 µM; active compounds read high
Procedure: Growth inhibition of yeast strains with defined genetic alterations is measured as a screen for potential anti-cancer activity. Selected strains with alterations in DNA damage repair or cell cycle control were exposed to compounds and growth inhibition was measured relative to vehicle treated controls. The strain used in this assay is rad50
Compounds without any hit were thinned out: in the full panel of roughly 79,000, 15% have a hit.
# if value of growth inhibition reaches 80%, tag Y; if it stays below, tag N

Completed entries (count: 2):
Query block: Say whether `CC(C)NC(=O)OCc1c(COC(=O)NC(C)C)c(-c2ccc(Cl)c(Cl)c2)n2c1CCC2` shows growth inhibition of 80% or more.
Result block: N

Query block: Answer whether growth inhibition of `O=c1c2ccccc2ncn1COCc1ccccc1` is greater than or equal to 80%.
Result block: N

***
Query block: Say whether `CO[C@H]1C[C@](C)(O)Cc2cc3c(c(O)c21)C(=O)c1c(O)cc2c(c1C3=O)O[C@@H]1O[C@@]2(C)[C@H](O)[C@@H](N(C)C)[C@@H]1O` shows growth inhibition of 80% or more.
Result block: N

Query block: Evaluate `CC(=O)OCc1ccc(O)c(C=O)c1` : growth inhibition at minimum 80%?
Result block: N

Query block: I'd appreciate it if you could say whether `O=C(O)c1ccccc1NC(=S)c1ccccc1` has growth inhibition at least equal to 80%.
Result block: N

Query block: hey, is growth inhibition for this one >= 80%? `Cc1nc(-[n+]2nc(-c3ccncc3)nn2-c2ccccc2)sc1C`
Result block: N

Query block: For this compound, is measured growth inhibition 80% or higher? `CCN(CC)CCNc1ccc([N+](=O)[O-])c2nc3ccc(OC)cc3c(N)c12`
Result block: N

Query block: Could you verify whether the entry `CC(C)(Br)C(=O)/C=C/c1ccc(Cl)c(Cl)c1` shows growth inhibition of no less than 80%?
Result block: Y

Query block: Test whether the compound `Brc1ccc(-c2cc3c(cc2C2SCCS2)OCO3)cc1` records growth inhibition of 80% or higher.
Result block: N

Query block: Does `Cc1ccc(CSC(N)=Nc2ccccc2)cc1C` have a reported growth inhibition of at least 80%?
Result block: N

Query block: Identify whether the reported growth inhibition of the following compound is 80% or greater: `CCCC/C=C/C(CC)(C(=O)OCC)C(=O)OCC`
Result block: N

Query block: In plain terms: is recorded growth inhibition at least 80% for `O=[N+]([O-])c1ccc(=S)[nH]c1` ?
Result block: Y

* * *

Assay: NCI Yeast Anticancer Drug Screen. Data for the mec2-1 strain (AID 157)
Conditions: S. cerevisiae mec2-1 strain, at 50.0 µM
About 79,000 compounds went through this panel and 15% of them were active in at least one assay; those are over-represented in the sample as a whole. The source made the active and inactive calls. Rule as the data show it: active = growth inhibition above about 70%; inactive = the rest.
Please state which outcome applies, choosing from Yes for active, No for inactive

Use these answered entries as a reference point.
Query block: Which result was noted for this molecule in the test: `CSC(=S)Nc1cccc(C)n1`
Result block: No

Query block: What did the test return for Nc1ccccc1CC(O)C(=O)O (stereo unspecified) ?
Result block: No

Query block: Dear colleague, could you share the recorded outcome for `O=C(N=Nc1cc(Cl)ccc1Cl)NNc1cc(Cl)ccc1Cl` when you have a moment?
Result block: Yes

Next:
Query block: Would you mind telling me which call this test gave C(CCSC1=NCCN1)CSC1=NCCN1 (tested in a mixture with another compound) ?
Result block: Yes

Query block: Give the logged outcome of this assay for the following molecule: `O=C(c1ccc(Cl)cc1Cl)C(Cl)Cl`
Result block: Yes

Query block: Would you mind telling me which call this test gave `CN(C)CCn1c2c3ccccc3ccc2c2oc(=O)c3ccccc3c21` ?
Result block: Yes

* * *

Test: NCI Yeast Anticancer Drug Screen. Data for the rad50EPP+ strain (AID 151);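 further: 0% = growth of vehicle-treated control cultures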
Settings: S. cerevisiae rad50 mutant strain, at 33.0 µM, active compounds read high
This is part of a sample that, as a whole, favours compounds with a hit. Of some 79,000 tested, about 15% had one in any assay.
Definition: the class of an entry is the range in band 1 = under 30%, band 2 = from 30% up to 80%, band 3 = 80% and over that contains its growth inhibition.

Query block: Category of `Cc1ccc2ccc(O)cc2c1` :
Result block: band 1

Query block: Category of O=C1C2CC[C@@H]3C(=O)C(Cl)(Cl)[C@@H]3CCC2C1(Cl)Cl (some centres not stated) , please.
Result block: band 2

Query block: Pick a category. Item: O=C1CSC(/C=C/c2ccccc2)N1c1ccc(-c2ccc(-n3c(-c4ccccc4)nc4ccccc4c3=O)cc2)cc1 (configuration not stated)
Result block: band 1

Query block: Could you tell me which band `S=C(Nc1ccc(Cl)c(Cl)c1)SCc1ccc2c(c1)OCO2` belongs to?
Result block: band 3

Query block: Tag the class for `CCC#CCCCOC(=O)c1cc([N+](=O)[O-])cc([N+](=O)[O-])c1`
Result block: band 3

Query block: State the band of `CCS(=O)(=O)c1ccc(/C=C/C=N/NC(=S)NCC(C)C)cc1`
Result block: band 1

---
Query block: Pick a category. Item: `Cc1ccc(CCC2=CCCc3c2ccc2ccccc32)cc1`
Result block: band 2

Query block: Class for O=C(OCCN1CCCCCC1)C(c1ccsc1)C1CCCCC1 (configuration not stated) ?
Result block: band 1

Query block: Exam item: assign OC1(c2ccccc2)CSC2=Nc3ccccc3C3CCN1N23 (configuration not stated) to the correct category.
Result block: band 1

Query block: Place this molecule in its band: `NNC(=O)CCc1ccc2ccc3ccccc3c2c1`
Result block: band 2

Query block: Looking at `O=C(N=Nc1cc(Cl)ccc1Cl)NNc1cc(Cl)ccc1Cl` , which class would you pick?
Result block: band 1

Query block: Band assignment needed for `CCN(CC)C(C)(C)C(=O)/C=C/c1ccccc1` please.
Result block: band 1

Query block: Kindly identify the class of `O=C(/C=C\c1ccc(Cl)cc1Cl)c1cccs1` .
Result block: band 2

Query block: For this molecule, which bin applies? `O=C(Nc1ccccc1)OCCc1ccc(Cl)c(Cl)c1`
Result block: band 1

Query block: Class (by measured growth inhibition) for `C[S+](C)C1(c2ccccc2)C(=O)c2ccccc2C1=O`
Result block: band 2

Query block: Bin this entry: `CC/C(=C(\c1ccccc1)c1ccc(OCCN(C)C)cc1)c1ccccc1`
Result block: band 3

Query block: Class for `CSC(=S)Nc1cc(C)ccn1` ?
Result block: band 3

Query block: Looking at `NC(N)=N/N=C\c1c2ccccc2cc2ccccc12` , which class would you pick?
Result block: band 1

Query block: Please let me know in which category the item `[O-][n+]1c2ccc(O)cc2nc2ccc(Cl)cc21` belongs.
Result block: band 2

Query block: Hi, small favor: classify CC(C)C1=CCC2C(=C1)CCC1C(C)(C(=O)O)CCCC21C (configuration not stated) (tested in a mixture with another compound) by its growth inhibition when you get a moment.
Result block: band 2

Query block: Hello team, could you let me know which band the following molecule falls into: O=C1NC(=O)C2C3C=CC(C3)C12 (configuration not stated)
Result block: band 3

Query block: Any idea which band `CCCCCCCCCCCC(=O)N(C)C` is in?
Result block: band 2

Query block: Textbook exercise: identify the category of the molecule given here, `COc1cc2c3c(cccc3c1)C(=O)N(CCN(C)C)C2=O` , according to its measured value.
Result block: band 2

Query block: Could you place `C/C(=N\NC(=S)SCc1ccccc1)c1ccccn1` in its proper category? Many thanks.
Result block: band 3

Query block: Into which bin does this molecule go? CC(=O)OC1CCC2(C)C(=CCC3C4CCC5(OC6CC(C)CN(C(C)=O)C6C5C)C(C)=C4C(=O)C32)C1 (configuration not stated)
Result block: band 1

Query block: Which growth inhibition category applies to `[O-][n+]1c2ccc(O)cc2nc2ccc(Br)cc21` here?
Result block: band 2

Query block: Form field 'band' for COC1=CC(=O)C(C2(OC(C)C)OC(=O)C(Cl)=C2Cl)=CC1=O (configuration not stated)
Result block: band 3

Query block: Quick check: band for Cc1ccc(C2C(Cl)C(=O)N2n2cnc3ccccc3c2=O)cc1 (configuration not stated)
Result block: band 2
